assay: BET inhibitor-based combinations targeting novel dependencies in MECOM-rearranged (r) AML: HNT-34 cell line (AID 2202234); conditions: HNT-34 AML viability, CellTiter-Glo luminescence, 48 h; series mostly up to 46 µM; also: nearly all actives have a fitted effect of over 35% in size; also: potency is read from the fitted curve at half-maximal effect
Results filed as inconclusive are left out. Active and inactive are the calls of the source. Calls follow the shape of the dose curve; as a rule, active = well fitted inhibition curve with a large enough effect; inconclusive = small, poorly fitted or top-dose-only effect; inactive = no such curve, though single readings can be large or run the other way.
READOUT LABEL: Potency

Solved entries (count: 5):
Cc1[nH]c(=O)c(C#N)cc1-c1ccncc1 : inactive
O=C(O)CCCCC(CCSCc1ccccc1)SCc1ccccc1 (stereo not given) : inactive
Oc1ccc2ccccc2c1SSc1c(O)ccc2ccccc12 : 18.6 µM (active)
CC1COC2(CCN(c3nc(=O)c4cc(C(F)(F)F)cc([N+](=O)[O-])c4s3)CC2)O1 (stereo not given) : inactive
C=CC(=O)Nc1cc2c(Nc3ccc(F)c(Cl)c3)ncnc2cc1OCCCN1CCOCC1 : 2.63 µM (active)

Reported Potency ( CS(=O)(=O)N(Cc1ccco1)CC(O)Cn1c2ccccc2c2ccccc21 (stereo not given) ) = inactive

Reported Potency ( N#Cc1ccnc(Nc2cc(C3CCN(C4COC4)CC3)cc(N3CCC(F)(F)C3)n2)c1 ) = 0.833 µM (active)

Reported Potency ( COc1ccc(-c2ccc3c(N4CCOCC4)nc(N4C[C@@H](C)O[C@@H](C)C4)nc3n2)cc1CO ) = 0.934 µM (active)

Reported Potency ( Cc1cc(Nc2cc(CN3CCOCC3)c3nc(C)c(Cc4ccc(Cl)cc4F)n3n2)n[nH]1 ) = 2.35 µM (active)

Reported Potency ( Cc1[nH]c2ccc(F)cc2c1-c1nc2c3cccnc3c3ncccc3c2[nH]1 ) = 0.679 µM (active)

---

target: Cellular tumor antigen p53 (Homo sapiens) (UniProt P04637); experiment: Primary qHTS for small molecule compounds that upregulate eGFP-tagged delta133p53alpha (in C-terminal) cells. (AID 2060324); details: NCI-H358 delta133p53alpha-eGFP (C-terminal tag), GFP fluorescence imaging, 24 h; series mostly up to 57.5 µM
Sequence (P04637 whole entry, looked up): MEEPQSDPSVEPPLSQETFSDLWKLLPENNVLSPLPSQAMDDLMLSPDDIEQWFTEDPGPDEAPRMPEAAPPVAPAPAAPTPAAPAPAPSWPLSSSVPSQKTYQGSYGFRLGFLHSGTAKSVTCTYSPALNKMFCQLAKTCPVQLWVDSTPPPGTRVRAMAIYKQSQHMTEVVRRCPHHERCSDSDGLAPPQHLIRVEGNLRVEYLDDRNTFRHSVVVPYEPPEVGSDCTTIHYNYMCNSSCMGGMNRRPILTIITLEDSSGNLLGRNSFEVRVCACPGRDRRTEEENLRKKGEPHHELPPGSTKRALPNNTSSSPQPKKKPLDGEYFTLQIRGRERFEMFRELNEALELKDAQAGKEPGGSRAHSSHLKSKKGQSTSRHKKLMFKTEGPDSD
Inconclusive results are not listed. Activity calls are given as the source filed them. Calls come from the whole dose curve; as a rule, active = well fitted activation curve with a large enough effect; inconclusive = small, poorly fitted or top-dose-only effect; inactive = flat fitted curve, though single readings scatter.
Tick one outcome: active, inactive

CCCc1c(-c2ccc(O)cc2)nn(-c2ccc(O)cc2)c1-c1ccc(O)cc1 : inactive

Here is another compound to look at.
query: State the result this test recorded for NC(=Nc1ccccc1)NC(=O)c1nc(Cl)c(N)nc1N .
result: inactive

---

target: Retinal dehydrogenase 2 (Homo sapiens) (UniProt O94788); assay: qHTS for Inhibitors of the Aldehyde Dehydrogenase Family (ALDH1A2) Confirmation screens (AID 2061314); details: ALDH1A2 enzyme inhibition qHTS confirmation; series mostly up to 45.9 µM; also: nearly all actives have a fitted effect of over 65% in size
Results filed as inconclusive are left out. Activity calls are given as the source filed them. Calls follow the shape of the dose curve; as a rule, active = well fitted inhibition curve with a large enough effect; inconclusive = small, poorly fitted or top-dose-only effect; inactive = no such curve, though single readings can be large or run the other way.
Tick one outcome: Yes = active, No = inactive

N#Cc1ccc(O[C@@H]2c3ccccc3C[C@H]2N2CCC[C@@H](N)C2)c(Cl)c1 : No

query: State the result this test recorded for COc1ccc(C2Nc3ccccc3C(=O)N2Cc2ccco2)cc1COc1cccc(NC(C)=O)c1 (configuration not stated) .
result: Yes

query: State the result this test recorded for Cc1c(C(=O)OCC2CCCO2)[nH]c2c1C(=O)CCC2 (configuration not stated) .
result: Yes

query: State the result this test recorded for Nc1ccc(S(=O)(=O)N2CCN(S(=O)(=O)c3c(F)cccc3F)CC2)cc1 .
result: No

query: State the result this test recorded for O=c1c(O)c(-c2cc(O)c(O)c(O)c2)oc2cc(O)cc(O)c12 .
result: No

query: State the result this test recorded for Cc1cc(C)n2ncc(C(=O)Nc3ccc4c(c3)OCO4)c2n1 .
result: No

query: State the result this test recorded for N#Cc1c(-c2csc(-c3no[n+]([O-])c3C#N)c2)no[n+]1[O-] .
result: Yes
